- Experimental system: human plasma kallikrein (Homo sapiens)
- Protocol: Kallikrein inhibition FLINT assay with quenched AMC peptide substrate Z-Gly-Pro-Arg-AMC (end point EP or kinetic KIN reads)
- Type: biochemical
- Particulars: kinetic reads at 5 min intervals over 30 min; read-out: Kallikrein (KIN) IC50
Measure: IC50 (nM)

• [O-][n+]1cc(-c2c(-n3cnnn3)ccc(Cl)c2F)ccc1[C@@H](Cc1ccc(C(F)(F)F)nc1)n1cc(-c2ccnn2C(F)F)cn1 = 6.5

P. COc1cc(C(CC2CC2)n2cc(-c3ncnn3C)cn2)[n+]([O-])cc1-c1cc(Cl)ccc1C#N (single isomer, unassigned)
Q. [O-][n+]1cc(-c2c(-n3cnnn3)ccc(Cl)c2F)ccc1C(Cn1cc(F)cn1)n1cc(-c2ccnc(C(F)(F)F)n2)cn1 (stereo not drawn)
Of P versus Q , which is the one with smaller reported IC50? // respond with label for picked entry
Q
(Q: 36.2 nM, P: 281 nM)

---

- Experimental system: human plasma kallikrein (Homo sapiens)
- Protocol: Kallikrein inhibition FLINT assay with quenched AMC peptide substrate Z-Gly-Pro-Arg-AMC (end point EP or kinetic KIN reads)
- Assay type: biochemical
- Particulars: kinetic reads at 5 min intervals over 30 min; read-out: Kallikrein (KIN) IC50
Measure: IC50 (nM)

Worked examples follow.
* [O-][n+]1cc(-c2c(-n3cnnn3)ccc(Cl)c2F)ccc1[C@@H](Cc1ccc(C(F)F)cc1)n1cc(-c2cnnn2C(F)F)cn1 | 64.9
* [O-][n+]1cc(-c2c(C(F)F)ccc(Cl)c2F)ccc1C(Cn1cc(F)cn1)n1cc(-c2ccnc(C(F)(F)F)c2)cn1 (single isomer, unassigned) [Example Q22] | 806

1. [O-][n+]1cc(-c2c(-n3cc(Cl)nn3)ccc(Cl)c2F)ccc1[C@@H](CCOC(F)F)n1cc(-c2cnn(C(F)F)n2)cn1
2. NC(=O)c1ccc(-c2cnn(C(Cc3ccn(C(F)F)n3)c3ccc(-c4c(-n5cnnn5)ccc(Cl)c4F)c[n+]3[O-])c2)cc1F (single isomer, unassigned) [Example P933]
// which entry has the larger IC50 value, 1 or 2 ? Answer with the label corresponding to your selection.
1
(1: 212 nM, 2: 0.4 nM)

---

- Experimental system: human plasma kallikrein (Homo sapiens, UniProt P03952)
- Sequence (P03952 391-638 limits assumed): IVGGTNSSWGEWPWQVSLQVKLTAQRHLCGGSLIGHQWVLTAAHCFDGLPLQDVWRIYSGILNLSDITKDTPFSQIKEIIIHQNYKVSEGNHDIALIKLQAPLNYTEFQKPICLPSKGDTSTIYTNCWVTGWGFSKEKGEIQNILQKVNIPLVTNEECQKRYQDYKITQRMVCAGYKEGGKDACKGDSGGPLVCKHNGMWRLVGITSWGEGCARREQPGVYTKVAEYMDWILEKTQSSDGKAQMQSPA
- Sequence (P03952 20-390 partner limits assumed): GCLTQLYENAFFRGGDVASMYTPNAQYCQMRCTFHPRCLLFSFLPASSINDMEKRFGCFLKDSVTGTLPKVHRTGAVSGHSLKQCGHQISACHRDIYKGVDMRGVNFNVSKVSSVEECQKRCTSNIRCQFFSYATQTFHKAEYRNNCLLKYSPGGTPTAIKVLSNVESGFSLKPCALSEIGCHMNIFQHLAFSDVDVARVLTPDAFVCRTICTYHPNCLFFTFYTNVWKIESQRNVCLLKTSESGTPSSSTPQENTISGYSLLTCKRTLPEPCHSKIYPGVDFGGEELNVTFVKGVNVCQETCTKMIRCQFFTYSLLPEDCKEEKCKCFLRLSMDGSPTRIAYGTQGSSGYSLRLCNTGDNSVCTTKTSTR
- Protocol: Kallikrein inhibition FLINT assay with quenched AMC peptide substrate Z-Gly-Pro-Arg-AMC (end point EP or kinetic KIN reads)
- Type: biochemical
- Particulars: kinetic reads at 5 min intervals over 30 min; read-out: Kallikrein (KIN) IC50
pIC50: −log10 of the molar value.
Measure: pIC50

1. NC(=O)c1ccn(CC(c2ccc(-c3c(-n4cnnn4)ccc(Cl)c3F)c[n+]2[O-])n2cc(-c3ccncc3)cn2)n1 (stereo not drawn) [Example P443]
2. [O-][n+]1cc(-c2c(-n3cnnn3)ccc(Cl)c2F)ccc1C(CC1CC1)n1cc(-c2cnsc2)cn1 (stereo not drawn) [Example P456]
3. COC(=O)Nc1ccc(-c2cnn(C(Cc3ccc(Cl)cc3)c3ccc(-c4cc(Cl)ccc4-n4cnnn4)c[n+]3[O-])c2)cc1 (stereo not drawn) [Example P92]
4. Nc1ccc(-c2cnn(C(Cn3cccn3)c3ccc(-c4c(-n5cnnn5)ccc(Cl)c4F)c[n+]3[O-])c2)c(F)n1 (stereo not drawn) [Example P256]
5. NC(=O)c1ccnn1CC(c1ccc(-c2c(C(F)F)ccc(Cl)c2F)c[n+]1[O-])n1cc(-c2ccnc(C(F)(F)F)c2)cn1 (single isomer, unassigned) [Example Q28]
Arrange items by their pIC50 values in increasing order. # the answer lists labels in the order requested
2, 5, 3, 4, 1

All figures here come from patent US11814364B2.
